Origin of the recorded values: ChEMBL document CHEMBL5325409

Assign Ki to each entry below.
Target sequence: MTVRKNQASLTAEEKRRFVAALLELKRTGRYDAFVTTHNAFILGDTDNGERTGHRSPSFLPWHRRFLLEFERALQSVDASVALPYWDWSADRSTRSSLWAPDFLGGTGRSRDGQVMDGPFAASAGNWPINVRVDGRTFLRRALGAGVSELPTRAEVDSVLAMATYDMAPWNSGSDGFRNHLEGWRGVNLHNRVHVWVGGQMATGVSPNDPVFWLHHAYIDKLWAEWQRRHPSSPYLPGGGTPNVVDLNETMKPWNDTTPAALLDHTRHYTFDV
I only need the number, in µM, no unit after it.

# input Which value of Ki has been reported for O=c1ccc(CO)cn1O in the records?
# output 4.1

# input For Cl.NC(Cc1ccc(=O)n(O)c1)C(=O)O (racemic) then?
# output 42

# input Cl.N[C@H](Cc1ccc(=O)n(O)c1)C(=O)O , same question.
# output 16

# input And for Cl.N[C@@H](Cc1ccc(=O)n(O)c1)C(=O)O ?
# output 39

###

Target: Tyrosinase (Mus musculus)
Sequence (P11344 whole entry): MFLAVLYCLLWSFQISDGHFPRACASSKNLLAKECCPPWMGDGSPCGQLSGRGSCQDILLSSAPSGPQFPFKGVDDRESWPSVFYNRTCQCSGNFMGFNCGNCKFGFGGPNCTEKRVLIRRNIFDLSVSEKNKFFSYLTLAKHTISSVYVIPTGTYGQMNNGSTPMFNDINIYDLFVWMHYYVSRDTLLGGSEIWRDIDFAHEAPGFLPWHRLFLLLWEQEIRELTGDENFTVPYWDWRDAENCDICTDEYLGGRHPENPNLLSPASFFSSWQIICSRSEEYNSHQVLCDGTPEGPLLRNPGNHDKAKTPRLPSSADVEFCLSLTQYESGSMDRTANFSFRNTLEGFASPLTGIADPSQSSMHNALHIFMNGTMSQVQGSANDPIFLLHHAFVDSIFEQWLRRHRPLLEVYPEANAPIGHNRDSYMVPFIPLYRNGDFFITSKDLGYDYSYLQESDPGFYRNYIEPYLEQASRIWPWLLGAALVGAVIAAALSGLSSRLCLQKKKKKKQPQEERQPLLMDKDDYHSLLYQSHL
Please go through the items and note down their IC50.
Number only, in µM; omit the unit.

# input Consider the compound shown here: O=c1ccc(CO)cn1O What is its recorded IC50?
# output 61.2

# input Entry Cl.NC(Cc1ccc(=O)n(O)c1)C(=O)O (racemic) please
# output 10

###

Target chain: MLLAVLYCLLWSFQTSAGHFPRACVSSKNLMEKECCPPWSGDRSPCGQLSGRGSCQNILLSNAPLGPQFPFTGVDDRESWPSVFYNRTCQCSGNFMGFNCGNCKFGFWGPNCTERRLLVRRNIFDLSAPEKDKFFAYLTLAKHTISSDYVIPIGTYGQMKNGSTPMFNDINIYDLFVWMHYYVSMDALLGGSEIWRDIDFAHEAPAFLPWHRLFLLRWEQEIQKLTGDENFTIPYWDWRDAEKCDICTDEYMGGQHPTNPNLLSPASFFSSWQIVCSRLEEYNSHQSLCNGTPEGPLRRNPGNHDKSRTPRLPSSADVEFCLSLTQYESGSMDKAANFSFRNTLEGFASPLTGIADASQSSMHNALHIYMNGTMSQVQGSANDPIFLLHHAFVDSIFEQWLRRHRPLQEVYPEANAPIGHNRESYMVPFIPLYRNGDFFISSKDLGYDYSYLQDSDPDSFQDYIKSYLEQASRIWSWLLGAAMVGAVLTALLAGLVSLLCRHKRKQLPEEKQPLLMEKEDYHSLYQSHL
measured.attribute: Ki (µM)
Write the value in µM as a bare number.

# input Quick check: Ki of O=c1ccc(CO)cn1O ?
# output 7.5

# input Try this compound next: Cl.N[C@@H](Cc1ccc(=O)n(O)c1)C(=O)O
# output 8

# input # repeat for Cl.NC(Cc1ccc(=O)n(O)c1)C(=O)O (racemic)
# output 6

# input Same thing, different compound: Cl.N[C@H](Cc1ccc(=O)n(O)c1)C(=O)O
# output 76

###

For each record, write down the corresponding Ki.
Target: Mushroom tyrosinase (Agaricus bisporus, UniProt O42713+Q00024+C7FF04+C7FF05)
Provide the reading as a plain figure in µM.

# input I'd like to know its Ki. The compound in question is O=c1ccc(CO)cn1O
# output 1.2

# input Likewise for Cl.NC(Cc1ccc(=O)n(O)c1)C(=O)O (racemic) ?
# output 1.2

# input Subsequent entry: Cl.N[C@H](Cc1ccc(=O)n(O)c1)C(=O)O
# output 12.8

# input Field entry: Cl.N[C@@H](Cc1ccc(=O)n(O)c1)C(=O)O
# output 12.5
